Measured Target: T1, human ANGPT2 (SPR analyte) (human, UniProt O15123 275-496, limits assumed)
T1 construct: domain: FLD domain; also called HuANGPT2; human ANGPT2 FLD domain
T1 sequence (looked up): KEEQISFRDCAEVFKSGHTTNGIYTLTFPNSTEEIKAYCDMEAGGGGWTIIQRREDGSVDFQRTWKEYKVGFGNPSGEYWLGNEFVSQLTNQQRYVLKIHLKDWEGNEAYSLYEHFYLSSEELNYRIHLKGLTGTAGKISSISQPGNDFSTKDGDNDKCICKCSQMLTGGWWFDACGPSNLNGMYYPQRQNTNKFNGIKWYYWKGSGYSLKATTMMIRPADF
Procedure Details: SPR (ProteOn XPR36), antibody captured on Protein A/G, ANGPT2 as analyte, 1:1 Langmuir fit
Assay Endpoint: Kd (nM)
One number for each entry, in nM.

Would you mind listing Kd for each of the following binders?
1. ANGPT2-opt-19 (humanized) (antibody, human IgG1, kappa, V domains shown, also called Ang2-opt-19) VH: QVQLVQSGAEVKKPGSSVKVSCKASGYIFIDYFINWVRQAPGQGLEWMGKIGPGSGSSSSNEKFKGRVTITADKSTSTAYMELSSLRSEDTAVYYCAREAFDYDGDYYGMAYWGQGTLVTVSS VL: EIVMTQSPATLSVSPGERATLSCRASQSVLSSGNQKSFLAWYQQKPGQAPRLLIYGASTRETGIPARFSGSGSGTEFTLTISSLQSEDFAVYYCQQDHSYPITFGQGTKLEIKR
2. MEDI3617 analog (Medimmune) (antibody, human IgG1, kappa, V domains shown, Based on the description in U.S. Pat. No. 8,507,656; also called MED3617 analog; analog of MED3617) VH: QVQLVESGGGVVQPGRSLRLSCAASGFTFTNYGMHWVRQAPGKGLEWVAVISHDGNNKYYVDSVKGRFTISRDNSKNTLYLQMNSLRAEDTAVYYCAREGIDFWSGLNWFDPWGQGTLVTVSS VL: EIVLTQSPGTLSLSPGERATLSCRASQSITGSYLAWYQQKPGQAPRLLITGASSWATGIPDRFSGSGSGTDFTLTISRLEPEDFAVYYCQQYSSSPITFGQGTRLEIKR

Resp:
0.712
27
